Experiment: Lipophilicity by shake-flask method
Values of logP strictly less than 4 map to met, and values of at least 4 map to not met.

In [3]: df
Out[3]:
                                   compound  classification
0  O=c1oc2cc(OS(=O)(=O)c3ccc([N+](=O)[O-])cc3)ccc2cc1CSc1nc2ccccc2c(=O)[nH]1 [Compound 10f]             met
1  O=c1oc2cc(OS(=O)(=O)c3ccccc3)ccc2cc1CSc1nc(Nc2ccccc2)c2ccccc2n1 [Compound 2b]         not met
2  COc1ccc(S(=O)(=O)Oc2ccc3cc(CSc4nc5ccccc5c(=O)[nH]4)c(=O)oc3c2)cc1 [Compound 10b]             met
3  O=c1oc2cc(OS(=O)(=O)c3ccc(F)cc3)ccc2cc1CSc1nc2ccccc2c(=O)[nH]1 [Compound 10c]             met
4  O=c1oc2cc(OS(=O)(=O)c3ccccc3[N+](=O)[O-])ccc2cc1CSc1nc2ccccc2c(=O)[nH]1 [Compound 10e]             met
5  O=c1oc2cc(OS(=O)(=O)c3ccccc3)ccc2cc1CSc1nc2ccccc2c(=O)[nH]1 [Compound 10a]             met

Reference source for all entries: paper PMC9322071
